# Assay procedure: qHTS of pediatric cancer cell lines to identify multiple opportunities for drug repurposing: Primary screen for RD cells (AID 1347104); further: nearly all actives have a fitted effect of over 55% in size
# Condition set: RD rhabdomyosarcoma viability, CellTiter-Glo luminescence, 48 h; series mostly up to 46 µM
Inconclusive results are not listed. Activity calls are given as the source filed them. The call rests on the fitted dose curve; in most records, active means well fitted cell-killing curve with a large enough effect; inconclusive means small, poorly fitted or top-dose-only effect; inactive means flat fitted curve, though single readings scatter.
The reply should name one outcome from active, inactive

Check the results log: what was the call for CCC(=O)Nc1ccc(O)cc1 ?
inactive

Check the results log: what was the call for COc1ccc2cc1Oc1ccc(cc1)C[C@H]1c3c(cc4c(c3Oc3cc5c(cc3OC)CCN(C)[C@@H]5C2)OCO4)CCN1C ?
active

Check the results log: what was the call for O=C1OC(OC(=O)c2cccnc2Nc2cccc(C(F)(F)F)c2)c2ccccc21 (configuration not stated) ?
inactive

Check the results log: what was the call for CCN(CC)CCSC(=O)C(c1ccccc1)c1ccccc1 ?
inactive

Check the results log: what was the call for CCCCOc1cc(C(=O)OCCN(CC)CC)ccc1N ?
inactive

Check the results log: what was the call for COc1ccc2[nH]c(S(=O)Cc3ncc(C)c(OC)c3C)nc2n1 (configuration not stated) ?
inactive

Check the results log: what was the call for CCN(CC)CCNC(=O)c1c(C)[nH]c(/C=C2\C(=O)Nc3ccc(F)cc32)c1C ?
active

Check the results log: what was the call for CC1=C(C/C=C(\C)CCC[C@H](C)CCC[C@H](C)CCCC(C)C)C(=O)c2ccccc2C1=O ?
inactive

Check the results log: what was the call for C=CCn1c(=O)n([C@@H]2O[C@H](CO)[C@@H](O)[C@H]2O)c2nc(N)[nH]c(=O)c21 ?
inactive

Check the results log: what was the call for O=C(CCCN1CCN(c2ccccn2)CC1)c1ccc(F)cc1 ?
inactive

Check the results log: what was the call for CN1CCCCC1CCN1c2ccccc2Sc2ccc(S(C)=O)cc21 (configuration not stated) ?
inactive

Check the results log: what was the call for CC1(C)S[C@@H]2[C@H](NC(=O)Cc3ccccc3)C(=O)N2[C@H]1C(=O)O (tested in a mixture with another compound) ?
inactive

Check the results log: what was the call for CCOC(=O)c1ccc(O)cc1 ?
inactive

Check the results log: what was the call for Cc1cc2c(cc1S(N)(=O)=O)S(=O)(=O)CCC2 ?
inactive

Check the results log: what was the call for Cc1c(O)cccc1C(=O)N[C@@H](CSc1ccccc1)[C@H](O)CN1C[C@H]2CCCC[C@H]2C[C@H]1C(=O)NC(C)(C)C ?
active

Check the results log: what was the call for Cc1cc(O)cc2c1O[C@](C)(CCC[C@H](C)CCC[C@H](C)CCCC(C)C)CC2 ?
inactive

Check the results log: what was the call for CCCCCCCCCCCCCCCC(=O)NCCO ?
inactive

---

# Tested on: PAD
# Assay procedure: qHTS profiling for inhibitors of Plasmodium falciparum proliferation (AID 504749); further: nearly all actives have a fitted effect of over 60% in size
# Condition set: P. falciparum in erythrocytes, SYBR Green DNA, 72 h; series mostly up to 28.7 µM
Results filed as inconclusive are left out. The source made the active and inactive calls. Calls come from the whole dose curve; as a rule, active = well fitted inhibition curve with a large enough effect; inconclusive = small, poorly fitted or top-dose-only effect; inactive = flat fitted curve, though single readings scatter.
The reply should name one outcome from True (active), False (inactive)

Check the results log: what was the call for Cc1ccc(C(C)C)cc2c(C)ccc1-2 ?
False

Check the results log: what was the call for O=C(O)CC(O)C(=O)O (stereo unspecified) ?
False

Check the results log: what was the call for O=C1OC(OC(=O)c2cccnc2Nc2cccc(C(F)(F)F)c2)c2ccccc21 (stereo unspecified) ?
False

Check the results log: what was the call for O=c1cc(CO)occ1O ?
False

Check the results log: what was the call for O=C(CCCN1CCN(c2ccccn2)CC1)c1ccc(F)cc1 ?
False

Check the results log: what was the call for CCCCOC(=O)c1ccc(O)cc1 ?
False

Check the results log: what was the call for CCOc1ccc2ccccc2c1C(=O)N[C@@H]1C(=O)N2[C@@H]1SC(C)(C)[C@@H]2C(=O)O ?
False

Check the results log: what was the call for C[C@H](N)[C@H](O)c1cccc(O)c1 ?
False

Check the results log: what was the call for O=C1NC(=O)[C@@]2(CCOc3ccc(F)cc32)N1 ?
False

Check the results log: what was the call for CC(C)(C)C(=O)C(Oc1ccc(Cl)cc1)n1ccnc1 (stereo unspecified) ?
True

Check the results log: what was the call for O=Cc1ccccc1C=O ?
False

Check the results log: what was the call for O=C1c2c(O)cccc2Cc2cccc(O)c21 ?
False

Check the results log: what was the call for CCC(=O)c1ccc(O)cc1 ?
False

Check the results log: what was the call for O=c1cc[nH]c(=O)[nH]1 ?
False

Check the results log: what was the call for Oc1cn2c(n1)Nc1ccc(Cl)c(Cl)c1C2 ?
False

Check the results log: what was the call for O=C(O)[C@@H]1CSCN1 ?
False
